Quick reference: pIC50 of the listed items.
Target: human JAK2 (Homo sapiens, UniProt O60674)
Construct: catalytic domain (amino acids 808-1132; catalog number PV4210); GST
Sequence (O60674 808-1132): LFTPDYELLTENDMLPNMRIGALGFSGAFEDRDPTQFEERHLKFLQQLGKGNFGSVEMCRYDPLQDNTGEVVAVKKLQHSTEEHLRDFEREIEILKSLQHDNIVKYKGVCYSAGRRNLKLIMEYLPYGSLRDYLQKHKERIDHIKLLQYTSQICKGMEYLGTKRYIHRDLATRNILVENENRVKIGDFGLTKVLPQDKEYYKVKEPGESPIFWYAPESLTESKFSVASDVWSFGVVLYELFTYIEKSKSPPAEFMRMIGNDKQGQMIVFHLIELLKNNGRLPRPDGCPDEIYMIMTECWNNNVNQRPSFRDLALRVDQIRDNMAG
Test: JAK2 inhibition assay (polyGT substrate / Ulight-JAK1 peptide)
Details: recombinant human JAK2 catalytic domain; polyGT or Ulight-JAK1 peptide assay
pIC50: −log10 of the molar value.

Reference set, count: 3
[[record]]
compound = "CCc1ccc(F)cc1N(C)c1cc2c(cn1)ncn2C [Compound 84]"
valuereported = "6.30 to 7.00"

[[record]]
compound = "CCc1cc(COC)ccc1N(C)c1cc2c(cn1)ncn2C [Compound 105]"
valuereported = "6.30 to 7.00"

[[record]]
compound = "CN(c1cc2c(cn1)ncn2C)c1ccc(C2CN(C(=O)N3CCCCC3)C2)cc1OC(F)F [Compound 367]"
valuereported = "< 6.00"


Please examine the following record next.
get_value(item= CCN(c1cccc(C(=O)c2ccccc2)c1)c1cc2c(cn1)ncn2C [Compound 9] , readout=pIC50) returns < 6.00

###

Quick reference: IC50 of the listed items.
Target: human JAK2 (Homo sapiens)
Construct: catalytic domain (amino acids 808-1132; catalog number PV4210); GST
Test: JAK2 inhibition assay (polyGT substrate / Ulight-JAK1 peptide)
Conditions: recombinant human JAK2 catalytic domain; polyGT or Ulight-JAK1 peptide assay

Reference set, count: 5
[[record]]
compound = "COc1ccc(Cc2cc3c(cn2)ncn3C)cc1"
valuereported = "> 1000 nM"

[[record]]
compound = "CCc1cc(C(C#N)N2CCC(O)CC2)ccc1N(C)c1cc2c(cn1)ncn2C (stereo not drawn)"
valuereported = "0.01 to 100 nM"

[[record]]
compound = "CCc1cc(C2CCCCC2)ncc1N(C)c1cc2c(cn1)ncn2C"
valuereported = "101 to 500 nM"

[[record]]
compound = "CCc1cc(CNC(=O)C(F)F)c(F)cc1N(C)c1cc2c(cn1)ncn2C"
valuereported = "0.01 to 100 nM"

[[record]]
compound = "CCc1cc(OCC(N)=O)ccc1N(C)c1cc2c(cn1)ncn2C"
valuereported = "101 to 500 nM"


get_value(item= `CCC(=O)N1CC(c2cc(CC)c(N(C)c3cc4c(cn3)ncn4C)cn2)C1` , readout=IC50) returns > 1000 nM

Each recorded value in this set is attributed to patent US20130217664A1.
